This collection of values is drawn from PubChem BioAssay (NCI).

- Tested on: UACC-257 melanoma
- Assay Comment: NCI-60 one-dose screen, 48 h (100 = growth as untreated, 0 = no growth, -100 = all killed)
- Experimental Setup: 10 µM unless noted
The panel holds about 83,000 compounds, 20% with a hit somewhere; the sample as a whole holds those more often.
Given measured growth, output YES if it is greater than or equal to 70% and NO if not.

Solved cases (2 shown):
> print(dat)
                                   molecule  label
1              Cc1ccc(NC(=O)CN2CCOCC2)cc1Cl    YES
2  CC(C)Cn1cnc2c3ccccc3nc(NCn3nc(-c4cc(Cl)cc(Cl)c4Cl)oc3=S)c21    YES

Query molecule follows.
Does growth meet or surpass 70% for "S=c1[nH]nc(Cn2c3ccccc3c3ccncc32)o1" ?
YES

---

Below: a set of entries, each annotated with reported growth.
- Tested on: SK-MEL-5 melanoma
- Assay Comment: NCI-60 one-dose screen, 48 h (100 = growth as untreated, 0 = no growth, -100 = all killed)
- Experimental Setup: 10 µM unless noted
Compounds without any hit were thinned out: in the full panel of roughly 83,000, 20% have a hit. Activity calls are given as the source filed them. Rule for the calls: active = growth percent below 10; inactive = the rest.

// worked examples, growth included
Compound	Measured On	growth
C=C(C)[C@@H]1C/C=C(\COC(=O)[C@H](OC(C)=O)C(NC(=O)c2ccccc2)c2ccccc2)CC[C@H]2O[C@]2(C)CC/C=C(\C)CC1 (some centres undefined)	SK-MEL-5 melanoma	71.4% [5 µM] (inactive)
CC(=O)Oc1ccc(C(OC(C)=O)OC(C)=O)cc1	SK-MEL-5 melanoma	105% (inactive)
COc1ccc(C[C@H](N)C(=O)N[C@@H]2[C@@H](CO)OC(n3cnc4c(N(C)C)ncnc43)[C@@H]2O)cc1 (some centres undefined)	SK-MEL-5 melanoma	-96.6% (active)
[2H]c1nc(Nc2ncc(F)c(-c3cc(F)c4nc(C)n(C(C)C)c4c3)n2)c([2H])c([2H])c1CN1CCN(CC)CC1	SK-MEL-5 melanoma	27.5% (inactive)

Consider the compound shown here: "O=S(=O)(O)c1ccc(F)cc1" What is its recorded growth?
105% (inactive)

Sample "COc1ccc(-c2ccc(NC(=O)Nc3cccc(C(F)(F)F)c3)c(C)n2)cc1" — what was its growth?
41.6% (inactive)

Can you look up the measured growth of "CCCCNC(=O)Oc1ccc(/C(=C(/CC)Cc2ccccc2)c2ccc(OCCCN(C)C)cc2)cc1" for me?
84.5% (inactive)

Fill blank: measured growth of the compound "CC1(C)N=C(N)N=C(N)N1c1cccc(CCCCc2ccccc2)c1" is ____.
-96.7% (active)

# get_value(readout='growth', item= "O=S(=O)(CCN1CCOCC1)Nc1cc(-c2ccc3ncnc(Nc4ccc(F)c(Cl)c4)c3c2)cnc1Cl" )
-5.68% (active)

---

- System: SK-MEL-2 melanoma
- Assay Comment: NCI-60 one-dose screen, 48 h
- Experimental Setup: 10 µM unless noted
About 83,000 compounds went through this panel and 20% of them were active in at least one assay; those are over-represented in the sample as a whole. The source made the active and inactive calls. Rule for the calls: active = growth percent below 10; inactive = the rest.
Reply using exactly one outcome from 1 = active, -1 = inactive

Check out these entries, answers already filled in.
> print(dat)
                                   compound        measured.on  label
1  Nc1ncc(-c2ccc3ncnc(Nc4ccc(F)c(Cl)c4)c3c2)cn1  SK-MEL-2 melanoma     -1
2  NC(=O)C1=C[C@H]2[C@H]3C=C[C@@]2(O)C(=O)O[C@@H]3O1  SK-MEL-2 melanoma     -1
3  COc1ccc(-c2nn(-c3ccc(NC(=O)c4cc(Cl)cc(Cl)c4)cc3)cc2-c2ccncc2)cc1Cl  SK-MEL-2 melanoma     -1
4  O=C(Cn1c2ccccc2c2ccncc21)N/N=C/c1c[nH]c2ccccc12  SK-MEL-2 melanoma     -1

Fill in: this test's call for "Cc1cccc(Cc2cnc(NC(=O)CCc3ccc(C)o3)s2)c1" is ___
-1

For "O=C(Nc1ccc(-n2ccc3c(NC(=O)c4ccccc4)nccc32)cc1)Nc1cccc(C(F)(F)F)c1" , which call appears in the assay record?
-1

// outcome(item) with item = Cc1ccc2c(C3C(C#N)=C(N)Oc4cc5ccccc5cc43)cc(=O)oc2c1 (stereo unspecified)
-1

Hello, I am checking results. What call was entered for "O=c1c2ccccc2[nH]n1Cc1ccc2c(c1)OCO2" ?
-1

Status in this test for "COc1ccc2c(c1)/C(=C/c1c(-c3cc(OC)c(OC)c(OC)c3Br)nc3sccn13)C(=O)N2" ?
-1

Please let me know the test result on file for "Cc1nc(N)nc(SCc2ccccc2)c1Br" .
-1

Just curious, what result did "O=C(Nc1ccc(-n2ccc3c(NC(=O)c4ccccc4)ncnc32)cc1)Nc1ccc(Cl)c(C(F)(F)F)c1" get here?
1

Field: outcome | Entry: "CC(=O)c1cc2c(N)c(C(=O)Nc3cccc(Cl)c3)sc2nc1C"
-1

// outcome(item) with item = "CN(CCNCc1ccccn1)CCNCc1ccccn1"
1

Could you check what this test reported for COCCNC(C(=O)c1ccccc1)c1ccccc1 (stereo unspecified) ?
-1

---

- Tested on: IGROV1 ovarian
- Assay Comment: NCI-60 one-dose screen, 48 h
- Experimental Setup: 10 µM unless noted
About 83,000 compounds went through this panel and 20% of them were active in at least one assay; those are over-represented in the sample as a whole. The source made the active and inactive calls. The calls were made as follows: active = growth percent below 10; inactive = the rest.
Just give me one of these, please: active, inactive

What did the test return for "COc1cc(-c2nc3ccccc3s2)ccc1OCc1nc2n(n1)S(=O)(=O)c1ccccc1N2c1ccccc1" ?
inactive

Returns: the outcome recorded for CC1OC(n2c3ccccc3c3c4c(c5c6ccccc6[nH]c5c32)C(=O)N(CCN[C@@H]2CCC[C@H]2N)C4=O)CC(O)C1O (some centres undefined) in this assay.
inactive

---

- Tested on: NCI/ADR-RES ovarian
- Assay Comment: NCI-60 one-dose screen, 48 h
- Experimental Setup: 10 µM unless noted
About 83,000 compounds went through this panel and 20% of them were active in at least one assay; those are over-represented in the sample as a whole. The source made the active and inactive calls. How the source made its calls: active means growth percent below 10; inactive means the rest.
Hi there, use one of these labels in your reply, thanks! T (active), F (inactive)

Molecule	Label
CNCCCOc1c(Br)cc(CCNC(=O)/C(Cc2ccc(OC)c(Br)c2)=N/O)cc1Br	F
COc1ccc(/C(Cl)=N/N=C(\Cl)c2cc(OC)c(OC)c(OC)c2)cc1OC(C)=O	F
CCn1c(SCC(=O)c2ccc(Br)cc2)nnc1-c1cc2c([nH]c3ccccc32)c(-c2cccc(O)c2)n1	F
CCCCCCCCN(CCCCCCCC)CC(O)c1cc(-c2ccccc2)nc2ccc(OC)cc12 (configuration not stated)	F
O=C(Nc1ccc(-n2cc(-c3ccncc3)c(-c3ccc(O)c(Cl)c3)n2)cc1)c1cc(C(F)(F)F)cc(C(F)(F)F)c1	F
COc1ccc2c(c1)C(=O)/C(=C/c1ccc(OCC(=O)c3ccc(Cl)cc3)cc1)O2	F
C=CCn1c(SCC(=O)Nc2ccc(C(=O)/C=C/c3cc(OC)c(OC)c(OC)c3)cc2)nnc1-c1ccc(OC)cc1	F
O=C(Nc1ccc(-n2cc(-c3ccncc3)c(-c3ccc(O)c(Cl)c3)n2)cc1)Nc1ccc(Cl)c(C(F)(F)F)c1	F

What outcome does the record of this test show for Cc1ccc2c(C3C(C#N)=C(N)Oc4cc5ccccc5cc43)cc(=O)oc2c1 (configuration not stated) ?
F

How did this test come out for "CCCCCn1ncc(-c2c(O)c(O)cc3c(O)c(-c4c(C)cc5c(-c6cnn(CCCCC)n6)c(O)c(O)cc5c4O)c(C)cc23)n1" ?
T

Assay outcome for "COc1cc(-c2nc3ccccc3s2)ccc1OCc1nc2n(n1)S(=O)(=O)c1ccccc1N2C" : what was it?
F

---

- Test system: 786-0 renal
- Assay Comment: NCI-60 one-dose screen, 48 h (100 = growth as untreated, 0 = no growth, -100 = all killed)
- Experimental Setup: 10 µM unless noted
Compounds without any hit were thinned out: in the full panel of roughly 83,000, 20% have a hit.
Reported growth by item:
Give the quantity in %, number only.

Observe how each entry below is paired with its result.
> print(dat)
                                   compound  measured.result
1  O=C(N/N=C1\SCC(=O)N1c1ccccc1)c1cc(-c2cc3ccccc3o2)nn1-c1ccccc1              102
2  O=c1c(-c2ccc3c(c2)OCO3)coc2c(CO)c(O)ccc12             23.6
3  COc1ccc(NC(=O)Nc2ccc(-c3ccc(OC)c(OC)c3)nc2C)cc1             11.1
4  CC1CCc2cc(F)cc3c(=O)c(C(=O)O)cn1c23 (stereo unspecified)             87.1
5             CCCCC(=O)Nc1nc2ccc(SCCC)cc2s1               65

Find the recorded growth belonging to COc1ccc(C2=NN(C(=O)COc3ccc(Cl)cc3)C(O)(c3cc(F)c(Cl)cc3Cl)C2)cc1 (stereo unspecified) and report it.
82

Which growth reading was recorded for the compound "O=C1COc2ccccc2C(=O)N1CCCCNc1ccccc1" ?
70.8
